Cited source for all entries: ChEMBL document CHEMBL1687921

targetUnderTest: PROBABLE TRANSMEMBRANE CARBONIC ANHYDRASE (CARBONATE DEHYDRATASE) (CARBONIC DEHYDRATASE) (Mycobacterium tuberculosis, UniProt P96878)
Sequence (P96878 whole entry): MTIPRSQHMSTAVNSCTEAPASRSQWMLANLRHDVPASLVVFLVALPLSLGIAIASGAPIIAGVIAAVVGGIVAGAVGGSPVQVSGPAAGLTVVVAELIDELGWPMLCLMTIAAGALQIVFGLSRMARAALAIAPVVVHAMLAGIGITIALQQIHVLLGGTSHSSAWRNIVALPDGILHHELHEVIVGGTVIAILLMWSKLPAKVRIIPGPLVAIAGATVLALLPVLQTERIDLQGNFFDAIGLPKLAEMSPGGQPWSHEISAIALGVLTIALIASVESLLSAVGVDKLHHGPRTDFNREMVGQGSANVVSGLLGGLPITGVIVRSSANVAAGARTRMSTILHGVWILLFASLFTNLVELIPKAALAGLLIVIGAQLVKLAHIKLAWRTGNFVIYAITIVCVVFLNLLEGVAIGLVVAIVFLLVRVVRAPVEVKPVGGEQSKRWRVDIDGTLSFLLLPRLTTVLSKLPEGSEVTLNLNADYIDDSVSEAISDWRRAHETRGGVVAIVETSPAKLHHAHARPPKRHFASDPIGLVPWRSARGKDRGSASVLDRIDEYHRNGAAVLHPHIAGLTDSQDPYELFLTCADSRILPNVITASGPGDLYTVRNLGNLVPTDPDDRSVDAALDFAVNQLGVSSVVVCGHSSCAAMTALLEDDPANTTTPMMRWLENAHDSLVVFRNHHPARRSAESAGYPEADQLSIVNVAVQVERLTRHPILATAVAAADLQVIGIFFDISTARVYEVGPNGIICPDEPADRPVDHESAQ
Please respond with reported Ki for every item in the list.
Numbers only, in µM.

Recorded Ki, per entry:
Oc1ccccc1 [PHENOL]	79
COc1cc([C@@H]2[C@@H](C)[C@@H](C)[C@@H]2c2ccc(O)c(OC)c2)ccc1O [ENDIANDRIN B]	0.89
NC(=O)Cc1ccc(O)cc1	9.12
COc1cc([C@@H]2[C@@H](C)[C@H](C)[C@H]2c2ccc(O)c(OC)c2)ccc1O [ENDIANDRIN A]	8.92

Go through the list and state Ki for each entry.
1. NC(=O)Cc1ccc(O)c(Cl)c1
2. O=C(Cc1ccc(O)c(Cl)c1)NCc1ccccc1

[A]
1: 11.2; 2: 0.98

----------
targetUnderTest: Beta-carbonic anhydrase 1 (Mycobacterium tuberculosis)
Sequence (P9WPJ7 whole entry): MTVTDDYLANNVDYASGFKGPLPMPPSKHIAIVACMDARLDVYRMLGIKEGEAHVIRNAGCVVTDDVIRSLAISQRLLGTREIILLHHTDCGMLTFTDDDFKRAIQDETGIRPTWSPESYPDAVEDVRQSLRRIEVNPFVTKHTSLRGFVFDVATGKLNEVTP
Provide the reported pKi of each item.
One number for each entry, as −log10 of the molar value.

CCCCNC(=O)Cc1ccc(O)c(Cl)c1	4.94
NC(=O)Cc1ccc(O)c(Cl)c1	4.98
CC(C)(C)NC(=O)Cc1ccc(O)c(Cl)c1	4.91
COc1cc(CO)cc2oc3ccc(O)c(C(=O)O)c3c(=O)c12	6.00
COc1cc(/C=C2\N=C(N)NC2=O)ccc1O [POLYANDROCARPAMINE A]	4.93
COc1cc(C[C@@H](C)[C@H](C)Cc2ccc(O)c(OC)c2)ccc1O [(-)-DIHYDROGUAIARETICACID]	6.07
O=C(O)Cc1ccc(O)c(Cl)c1	4.99
COc1cccc(CCNC(=O)Cc2ccc(O)c(Cl)c2)c1	5.90
COc1cc([C@@H]2[C@@H](C)[C@@H](C)[C@@H]2c2ccc(O)c(OC)c2)ccc1O [ENDIANDRIN B]	6.10
NC1=N/C(=C\c2ccc(O)c(O)c2)C(=O)N1 [POLYANDROCARPAMINE B]	6.04

Each of the following entries comes with a recorded value; kindly state pKi for each.
1. NC(=O)Cc1ccc(O)cc1
2. COc1cc([C@@H]2[C@@H](C)[C@H](C)[C@H]2c2ccc(O)c(OC)c2)ccc1O [ENDIANDRIN A]
3. Oc1ccccc1 [PHENOL]
4. OCCc1ccc(O)cc1 [TYROSOL]
5. COCCNC(=O)Cc1ccc(O)c(Cl)c1
6. NS(=O)(=O)c1ccc(CCNC(=O)Cc2ccc(O)c(Cl)c2)cc1
7. COC(=O)/C=C/C(=O)N[C@@H](Cc1ccc(O)c(Cl)c1)C(=O)O [(+)-XYLARIAMIDE A]
8. COc1ccc(CCNC(=O)Cc2ccc(O)c(Cl)c2)cc1OC

[A]
1: 6.07; 2: 6.09; 3: 4.19; 4: 6.07; 5: 4.96; 6: 5.94; 7: 6.15; 8: 5.75

Record pKi per entry; entries follow.
1. NS(=O)(=O)Cc1noc2ccccc12 [ZONISAMIDE]
2. O=C(Cc1ccc(O)c(Cl)c1)NCc1ccccc1
3. O=C(O)Cc1ccc(O)cc1
4. COC(=O)/C=C/C(=O)N[C@H](Cc1ccc(O)c(Cl)c1)C(=O)O [(-)-XYLARIAMIDE A]
5. COc1cc(C)cc2oc3ccc(O)c(C(=O)O)c3c(=O)c12
6. O=C(Cc1ccc(O)c(Cl)c1)NCCc1ccccc1

[A]
1. 3.54
2. 4.91
3. 4.97
4. 6.08
5. 4.98
6. 6.10
